- System: elastic fibers of the dermis, human skin tissue explants
- protocol: Morphometric quantification of elastic fibers (elastin expression) in skin explants
- Type: cell-based
- condition.label: D 1; test items applied twice per day, 5 μL per explant; peptides 20 μM (Peptide 8 10 μM), compositions 500 μg/mL, EGF 10 ng/mL
measured.quantity: Morphometric quantification of elastic fibers in the superficial dermis (%)
One number for each entry, in %.

Would you please look over these solved cases?
The sequence identified as LDALEPDNR [0723.03] registered its Morphometric quantification of elastic fibers in the superficial dermis (%) at 3

The sequence identified as SKPHTIFLPQHTDADYILVVLSGK [0723.08] registered its Morphometric quantification of elastic fibers in the superficial dermis (%) at 2.7

The sequence identified as RLQSQNDQRGEIIHVK [0723.02] registered its Morphometric quantification of elastic fibers in the superficial dermis (%) at 6.09

The sequence identified as HGPVEMPYTLLYPSSK [0723.01] registered its Morphometric quantification of elastic fibers in the superficial dermis (%) at 4.45

The sequence identified as RPYYSNAPQEIF [0723.04] registered its Morphometric quantification of elastic fibers in the superficial dermis (%) at 3.28

The sequence identified as QQYGIAASPFLQSAA [0723.07] registered its Morphometric quantification of elastic fibers in the superficial dermis (%) at 4

The sequence identified as TVFDGVLRPGQL [0723.06] registered its Morphometric quantification of elastic fibers in the superficial dermis (%) at 3.8

---
The sequence identified as VLLEQQEQEPQH [0723.05] registered its Morphometric quantification of elastic fibers in the superficial dermis (%) at 6.34
